assay: Selectivity index, ratio of CC50 for human HepG2 cells to EC50 for metronidazole sensitive Giardia lamblia WB trophozoites
The following molecules are listed with their measured Ratio CC50/EC50 values.

molecule	result
CNC(=O)c1ncc([N+](=O)[O-])[nH]1	>10
NC(=O)c1nc([N+](=O)[O-])cn1Cc1cccc(OC(F)(F)F)c1	>12
CN(C)C(=O)c1nc([N+](=O)[O-])cn1Cc1ccc(OC(F)(F)F)cc1	>37
NC(=O)c1nc([N+](=O)[O-])cn1Cc1ccc(OC(F)(F)F)cc1	>22
CC(NC(=O)c1ncc([N+](=O)[O-])[nH]1)c1ccc(F)cc1 (stereo unspecified)	>250
Cn1c([N+](=O)[O-])cnc1C(=O)N1CCCC1	>34

Ask | What measured Ratio CC50/EC50 goes with O=C(NCc1cccc(OC(F)(F)F)c1)c1ncc([N+](=O)[O-])[nH]1 ?
Reply | >500

Ask | What measured Ratio CC50/EC50 goes with O=C(NCc1ccc(F)cc1)c1ncc([N+](=O)[O-])[nH]1 ?
Reply | >250

Ask | What measured Ratio CC50/EC50 goes with NNC(=O)c1nc([N+](=O)[O-])cn1Cc1ccc(OC(F)(F)F)cc1 ?
Reply | >13

Ask | What measured Ratio CC50/EC50 goes with O=C(NCc1ccccn1)c1ncc([N+](=O)[O-])[nH]1 ?
Reply | >14

Ask | What measured Ratio CC50/EC50 goes with O=C(NO)c1nc([N+](=O)[O-])cn1Cc1ccc(OC(F)(F)F)cc1 ?
Reply | >20

----------
test: Cytotoxicity against human HepG2 cells assessed as cell growth inhibition after 24 hrs by resazurin assay; assay type: toxicity, cell-based
recorded metric: CC50 at 24 h

Ask | What measured CC50 at 24 h goes with NC(=O)c1nc([N+](=O)[O-])cn1CC1CC1 ?
Reply | > 100 µM

The reported measurements were obtained from ChEMBL document CHEMBL3856206.
